Measured values drawn from PubChem BioAssay (NCI) for this set.

- Tested on: LOX IMVI melanoma
- ASSAY_INFO: NCI-60 one-dose screen, 48 h (100 = growth as untreated, 0 = no growth, -100 = all killed)
- CONDITION: 10 µM unless noted
Compounds without any hit were thinned out: in the full panel of roughly 83,000, 20% have a hit. Active and inactive are the calls of the source. Rule for the calls: active = growth percent below 10; inactive = the rest.
The entries below are paired with their reported growth.
REPORTED_METRIC: growth

{"COMPOUND": "COc1cc2nc(N3CCC[C@H](NC4=CC(=O)c5ccccc5C4=O)C3)nc(N)c2cc1OC", "ASSAYED_SYSTEM": "LOX IMVI melanoma", "RESULT": "-82.9% (active)"}
{"COMPOUND": "NC(=O)c1cccc(-n2ccc3cc(NC(=O)Nc4ccc(Cl)c(Cl)c4)ccc32)n1", "ASSAYED_SYSTEM": "LOX IMVI melanoma", "RESULT": "81.9% (inactive)"}
{"COMPOUND": "O=C1CC(c2ccsc2)c2snc(-c3ccc(Cl)cc3)c2N1 (stereo not given)", "ASSAYED_SYSTEM": "LOX IMVI melanoma", "RESULT": "51.8% (inactive)"}
{"COMPOUND": "Cc1nc2nc(C(F)(F)F)[nH]c2nc1C", "ASSAYED_SYSTEM": "LOX IMVI melanoma", "RESULT": "98.6% (inactive)"}
{"COMPOUND": "COc1cc(/C=C/C(=O)C2=C(/C=C/c3ccc(O)c(OC)c3)NC(=O)NC2c2ccc(O)c(OC)c2)ccc1O (stereo not given)", "ASSAYED_SYSTEM": "LOX IMVI melanoma", "RESULT": "98.7% (inactive)"}
